Reference for the values: patent US11787796B2

# system: human activated kallikrein enzyme (Homo sapiens (Human), UniProt P03952)
# Sequence (P03952 391-638): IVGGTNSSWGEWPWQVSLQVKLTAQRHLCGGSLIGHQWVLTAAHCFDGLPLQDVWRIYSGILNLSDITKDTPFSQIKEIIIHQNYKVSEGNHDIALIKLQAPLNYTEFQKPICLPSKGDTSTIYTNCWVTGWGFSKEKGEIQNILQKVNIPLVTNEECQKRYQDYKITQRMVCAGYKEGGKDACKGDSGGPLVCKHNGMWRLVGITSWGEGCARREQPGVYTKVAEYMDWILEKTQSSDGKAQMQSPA
# Sequence (P03952 20-390 partner): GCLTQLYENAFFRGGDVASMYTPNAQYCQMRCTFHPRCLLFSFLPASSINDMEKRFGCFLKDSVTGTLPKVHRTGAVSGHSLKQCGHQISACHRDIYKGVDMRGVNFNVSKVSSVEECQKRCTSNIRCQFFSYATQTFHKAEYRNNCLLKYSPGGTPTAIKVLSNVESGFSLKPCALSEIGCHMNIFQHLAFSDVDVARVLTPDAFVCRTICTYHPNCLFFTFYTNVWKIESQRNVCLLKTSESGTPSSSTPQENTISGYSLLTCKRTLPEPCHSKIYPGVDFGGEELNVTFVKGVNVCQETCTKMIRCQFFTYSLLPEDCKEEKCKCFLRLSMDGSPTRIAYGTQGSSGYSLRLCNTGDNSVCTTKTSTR
# assay-text: Plasma kallikrein inhibition assay with fluorogenic peptide substrate, 500 pM activated kallikrein format
# Type: biochemical
# condition-details: 500 pM activated kallikrein; 300 uM Pro-Phe-Arg-7-amido-4-methylcoumarin substrate; 30 min preincubation, 10 min reaction at RT; read-out: Primary Dose Response Assay: Average EC50
Reported values of EC50 for individual entries
experimental-endpoint: EC50

molecule: Cc1cc(C(=N)N)cc(C)c1CNC(=O)c1cn(Cc2cn3cc(C4CC4)ccc3n2)nn1
result: ≤ 1 nM

molecule: COc1ccc(-n2cnnc2)c(CNC(=O)c2cn(Cc3cn4cc(C5CC5)ccc4n3)nn2)c1F
result: 1 to 10 nM

molecule: COc1ccc(-n2cnnn2)c(CNC(=O)c2cn(Cc3cn4cc(C5CC5)cc(C(O)C5COC5)c4n3)nn2)c1F (stereo not drawn)
result: ≤ 1 nM

molecule: NCc1cc(C2CC2)cn2cc(Cn3cc(C(=O)NC4CCc5c4ccnc5N)nn3)nc12 (stereo not drawn)
result: ≤ 1 nM

molecule: COc1ccc(S(=O)(=O)N2CCOCC2)c(CNC(=O)c2cn(Cc3cn4cc(C5CC5)ccc4n3)nn2)c1F
result: 1 to 10 nM

molecule: Cc1cc2c(c(N)n1)CCC2NC(=O)c1cn(Cc2cn3cc(C4CC4)ccc3n2)nn1 (stereo not drawn)
result: ≤ 1 nM

molecule: COc1ccnc(CNC(=O)c2cn(Cc3cn4cc(C5CC5)cc(CCN(C)C)c4n3)nn2)c1F
result: 1 to 10 nM

molecule: COc1ccc(-n2ccnn2)c(CNC(=O)c2cn(Cc3cn4cc(C5CC5)ccc4n3)nn2)c1F
result: ≤ 1 nM

molecule: Cc1cc2c(N)noc2c(C)c1CNC(=O)c1cnn(Cc2cn3cc(C4CC4)ccc3n2)c1
result: 2000 to 7100 nM

molecule: COc1ccc(-n2cnnn2)c(CNC(=O)c2nnn(Cc3cn4cc(C5CC5)cc(F)c4n3)n2)c1F
result: ≤ 1 nM

molecule: COc1ccc(-c2cnc(C(=O)O)nc2)c(CNC(=O)c2cn(Cc3cn4cc(C5CC5)ccc4n3)nn2)c1F
result: 1 to 10 nM

molecule: COc1ccc(-n2cnnn2)c(CNC(=O)c2cn(Cc3cn4cc(C5CC5)ccc4n3)nn2)c1F
result: ≤ 1 nM

molecule: COc1ccc(F)c(CNC(=O)c2cn(Cc3cn4cc(C5CC5)ccc4n3)nn2)c1F
result: 10 to 100 nM

molecule: O=C(NCc1ccccc1)c1cn(Cc2cn3cc(C4CC4)ccc3n2)nn1
result: > 7100 nM

molecule: O=C(NCc1cc(Cl)ccc1-n1cc(Cl)nn1)c1cn(Cc2cn3cc(C4CC4)ccc3n2)nn1
result: 10 to 100 nM

molecule: O=C(NCc1cc(Cl)ccn1)c1cn(Cc2cn3cc(C4CC4)ccc3n2)nn1
result: 2000 to 7100 nM

molecule: O=S(=O)(NCCOc1ccccc1)c1cnn(Cc2cn3cc(C4CC4)ccc3n2)c1
result: > 7100 nM

molecule: COc1ccc(-n2cnnn2)c(CNC(=O)c2cn(Cc3cn4cc(C5CC5)cc(COCCN)c4n3)nn2)c1F
result: ≤ 1 nM

molecule: COc1ncc(C#N)c(CNC(=O)c2cn(Cc3cn4cc(C5CC5)ccc4n3)nn2)c1F
result: 100 to 2000 nM

molecule: COc1ccc(C#N)c(CNC(=O)c2cnn(Cc3cn4cc(C5CC5)cc(C#N)c4n3)c2)c1F
result: ≤ 1 nM

molecule: O=S(=O)(NCc1ccc(Cl)cc1)c1cnn(Cc2cn3cc(C4CC4)ccc3n2)c1
result: > 7100 nM

molecule: O=C(NCc1cc2c(cn1)CCO2)c1cn(Cc2cn3cc(C4CC4)ccc3n2)nn1
result: 10 to 100 nM

molecule: COc1ccc(-n2cnnn2)c(CNC(=O)c2cncn2Cc2cn3cc(C4CC4)ccc3n2)c1F
result: > 7100 nM

molecule: O=C(NCc1c(N2CC3(COC3)C2)ccc(Cl)c1F)c1cnn(Cc2cn3cc(C4CC4)ccc3n2)c1
result: 100 to 2000 nM

molecule: O=C(NCc1cc(=O)[nH]c2ccccc12)c1cnn(Cc2cn3cc(C4CC4)ccc3n2)c1
result: 10 to 100 nM

molecule: O=C(NCc1cc(=O)[nH]c2ccc(Br)cc12)c1cnn(Cc2cn3cc(C4CC4)ccc3n2)c1
result: 1 to 10 nM

molecule: Cc1[nH]nc2c1CC[C@H]2NC(=O)c1cnn(Cc2cn3cc(C4CC4)ccc3n2)c1
result: 1 to 10 nM
